molecular target: MRGPRX4 (Homo sapiens, UniProt Q96LA9); assay: MRGPRX4 activation, Fluo-8 Ca2+ FLIPR assay in HEK293T cells stably expressing MRGPRX4; format: cell-based; conditions: MRGPRX4 activation, Ca2+ fluorescence; no activation in tested range reported as III; read-out: Activity (EC50 μM)
Sequence (Q96LA9 whole entry): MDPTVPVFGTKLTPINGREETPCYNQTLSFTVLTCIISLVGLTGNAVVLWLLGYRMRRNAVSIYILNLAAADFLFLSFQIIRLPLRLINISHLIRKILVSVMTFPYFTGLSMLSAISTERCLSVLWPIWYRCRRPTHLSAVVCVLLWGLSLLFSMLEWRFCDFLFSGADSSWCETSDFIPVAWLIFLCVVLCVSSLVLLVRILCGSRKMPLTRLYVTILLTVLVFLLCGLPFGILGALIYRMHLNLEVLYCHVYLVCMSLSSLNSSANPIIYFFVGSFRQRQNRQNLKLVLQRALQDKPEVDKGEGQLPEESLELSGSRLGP
Exercise: for every item that follows, state its recorded EC50.

Any idea what its EC50 is? The compound is CC[C@H]1[C@@H](O)[C@@H]2[C@H](CC[C@]3(C)[C@@H]([C@H](C)CCNC(=O)NS(=O)(=O)C4CCC(C)(C)CC4)CC[C@@H]23)[C@@]2(C)CCCC[C@@H]12 [5-5]
> 100 µM

Any idea what its EC50 is? The compound is [2H]C1CC[C@@]2(C)[C@@H](C1)[C@@H](CC)[C@@H](O)[C@@H]1[C@@H]2CC[C@]2(C)[C@@H]([C@H](C)CCNC(=O)NS(=O)(=O)c3ccc(C(C)(C)CF)cc3)CC[C@@H]12 (stereo partly drawn) [13-2]
> 100 µM

Any idea what its EC50 is? The compound is CC[C@H]1[C@@H](O)[C@@H]2[C@H](CC[C@]3(C)[C@@H]([C@H](C)CCNC(=O)NS(=O)(=O)c4ccc(C(C)(C)C(=O)O)cc4)CC[C@@H]23)[C@@]2(C)CCCC[C@@H]12 [5-10]
> 100 µM

----------
Biological target: MRGPRX4 (Homo sapiens, UniProt Q96LA9)
Experiment: MRGPRX4 activation, Fluo-8 Ca2+ FLIPR assay in HEK293T cells stably expressing MRGPRX4
Format: cell-based
Details: Conc. (Log[M]) −8.3
Method: In some embodiments, cells were cultured in poly-D-Lys coated blacked walled, clear-bottom 96-well microplates. […] The concentration of solution should be determined according to the protocol settings and experimental needs (e.g., Log[M]=−4, −5, −6, −7, −8, and −9). […] A fluorescent signal baseline was measured using FLIPR®Tetra for 30 s. […] The fluorescent signal would be measured for another 150 s. Activity of each compound was calculated by the fluorescence change (dF/F0). […]
Attribute measured: MRGPRX4 activation, fluorescence change (dF/F0), Average
Lab note: record just the number, no unit beside it.

Any idea what its MRGPRX4 activation, fluorescence change (dF/F0), Average is? The compound is `CC[C@H]1[C@@H](O)[C@@H]2[C@H](CC[C@]3(C)[C@@H]([C@H](C)CCNC(=O)NS(=O)(=O)c4ccc(C(C)(C)CN)cc4)CC[C@@H]23)[C@@]2(C)CCCC[C@@H]12`
0.013

Any idea what its MRGPRX4 activation, fluorescence change (dF/F0), Average is? The compound is `CC[C@H]1[C@@H](O)[C@@H]2[C@H](CC[C@]3(C)[C@@H]([C@H](C)CCNC(=O)NS(=O)(=O)c4ccc(C(C)(CO)CO)cc4)CC[C@@H]23)[C@@]2(C)CCCC[C@@H]12`
0.016

Any idea what its MRGPRX4 activation, fluorescence change (dF/F0), Average is? The compound is `CC[C@H]1[C@@H](O)[C@@H]2[C@H](CC[C@]3(C)[C@@H]([C@H](C)CCNC(=O)NS(=O)(=O)c4ccc(C(C)(C)C(N)=O)cc4)CC[C@@H]23)[C@@]2(C)CCCC[C@@H]12`
0.025

Any idea what its MRGPRX4 activation, fluorescence change (dF/F0), Average is? The compound is `CC[C@H]1[C@@H](O)[C@@H]2[C@H](CC[C@]3(C)[C@@H]([C@H](C)CCNC(=O)NS(=O)(=O)c4cc(F)cc(F)c4)CC[C@@H]23)[C@@]2(C)CCCC[C@@H]12`
0.011

Any idea what its MRGPRX4 activation, fluorescence change (dF/F0), Average is? The compound is `CC[C@H]1[C@@H](O)[C@@H]2[C@H](CC[C@]3(C)[C@@H]([C@H](C)CCNC(=O)NS(=O)(=O)c4ccc(C(C)(C)C#N)cc4)CC[C@@H]23)[C@@]2(C)CCCC[C@@H]12`
0.013

Any idea what its MRGPRX4 activation, fluorescence change (dF/F0), Average is? The compound is `CC[C@H]1[C@@H](O)[C@@H]2[C@H](CC[C@]3(C)[C@@H]([C@H](C)CCNC(=O)NS(=O)(=O)c4ccc(C5(CO)CCCC5)cc4)CC[C@@H]23)[C@@]2(C)CCCC[C@@H]12`
0.018

----------
Exercise: for every item that follows, state its recorded Activation (%).
Molecular target: MRGPRX4 (Homo sapiens, UniProt Q96LA9)
Test: MRGPRX4 activation, Fluo-8 Ca2+ FLIPR assay in HEK293T cells stably expressing MRGPRX4
Type: cell-based
Details: second E3-8-1, 10000 nM, n = 2
Description: In some embodiments, cells were cultured in poly-D-Lys coated blacked walled, clear-bottom 96-well microplates. […] The concentration of solution should be determined according to the protocol settings and experimental needs (e.g., Log[M]=−4, −5, −6, −7, −8, and −9). […] A fluorescent signal baseline was measured using FLIPR®Tetra for 30 s. […] The fluorescent signal would be measured for another 150 s. Activity of each compound was calculated by the fluorescence change (dF/F0). […]

Any idea what its Activation (%) is? The compound is CC[C@H]1[C@@H](O)[C@@H]2[C@H](CC[C@]3(C)[C@@H]([C@H](C)COC(=O)NS(=O)(=O)c4ccc5c(c4)CCC(C)(C)O5)CC[C@@H]23)[C@@]2(C)CCCC[C@@H]12 [18-2]
2.24%

Any idea what its Activation (%) is? The compound is CC[C@H]1[C@@H](O)[C@@H]2[C@H](CC[C@]3(C)[C@@H]([C@H](C)CNC(=O)NS(=O)(=O)c4ccc(N5CCCCC5)nc4)CC[C@@H]23)[C@@]2(C)CCCC[C@@H]12 [20-3]
3.17%

Any idea what its Activation (%) is? The compound is CC[C@H]1[C@@H](O)[C@@H]2[C@H](CC[C@]3(C)[C@@H]([C@H](C)COC(=O)NS(=O)(=O)c4ccc(N5CCCCC5)nc4)CC[C@@H]23)[C@@]2(C)CCCC[C@@H]12 [18-3]
2.86%

Any idea what its Activation (%) is? The compound is CC[C@H]1[C@@H](O)[C@@H]2[C@H](CC[C@]3(C)[C@@H]([C@H](C)COC(=O)NS(=O)(=O)c4ccc(C(C)(C)CF)cc4)CC[C@@H]23)[C@@]2(C)CCCC[C@@H]12 [18-1]
3.79%

----------
Molecular target: MRGPRX4 (Homo sapiens)
Experiment: MRGPRX4 activation, Fluo-8 Ca2+ FLIPR assay in HEK293T cells stably expressing MRGPRX4
Format: cell-based
Design: key: fluorescence change dF/F0
Conditions: E3-9, Conc. (Log[M]) −5.4
Protocol: In some embodiments, cells were cultured in poly-D-Lys coated blacked walled, clear-bottom 96-well microplates. […] The concentration of solution should be determined according to the protocol settings and experimental needs (e.g., Log[M]=−4, −5, −6, −7, −8, and −9). […] A fluorescent signal baseline was measured using FLIPR®Tetra for 30 s. […] The fluorescent signal would be measured for another 150 s. Activity of each compound was calculated by the fluorescence change (dF/F0). […]
The threshold is inclusive: MRGPRX4 activation, Average of exactly 0.02 counts as t; values below receive f.

Dear colleague, could you confirm whether `CC[C@H]1[C@@H](O)[C@@H]2[C@H](CC[C@]3(C)[C@@H]([C@H](C)CCNS(=O)(=O)CC(C)C)CC[C@@H]23)[C@@]2(C)CCCC[C@@H]12` has MRGPRX4 activation, Average at or above 0.02?
f

Dear colleague, could you confirm whether `CC[C@H]1[C@@H](O)[C@@H]2[C@H](CC[C@]3(C)[C@@H]([C@H](C)CCNC(=O)NS(=O)(=O)c4cc(F)ccc4F)CC[C@@H]23)[C@@]2(C)CC[C@H](F)C[C@@H]12` has MRGPRX4 activation, Average at or above 0.02?
f

Dear colleague, could you confirm whether `CC[C@H]1[C@@H](O)[C@@H]2[C@H](CC[C@]3(C)[C@@H]([C@H](C)CCNC(=O)NS(=O)(=O)c4ccc(N5CCCCC5)nc4)CC[C@@H]23)[C@@]2(C)CCCC[C@@H]12` has MRGPRX4 activation, Average at or above 0.02?
t

Dear colleague, could you confirm whether `CC[C@H]1[C@@H](O)[C@@H]2[C@H](CC[C@]3(C)[C@@H]([C@H](C)CCNC(=O)NS(=O)(=O)c4cccs4)CC[C@@H]23)[C@@]2(C)CC[C@H](F)C[C@@H]12` has MRGPRX4 activation, Average at or above 0.02?
f

Dear colleague, could you confirm whether `CC[C@H]1[C@@H](O)[C@@H]2[C@H](CC[C@]3(C)[C@@H]([C@H](C)CCNC(=O)NS(=O)(=O)c4ccc(C(C)(C)CF)cc4)CC[C@@H]23)[C@@]2(C)CCC(F)(F)C[C@@H]12` has MRGPRX4 activation, Average at or above 0.02?
f

Dear colleague, could you confirm whether `CC[C@H]1[C@@H](O)[C@@H]2[C@H](CC[C@]3(C)[C@@H]([C@H](C)CCNC(=O)C(=O)NS(=O)(=O)c4ccc(C(C)(C)CF)cc4)CC[C@@H]23)[C@@]2(C)CCCC[C@@H]12` has MRGPRX4 activation, Average at or above 0.02?
t

Dear colleague, could you confirm whether `CC[C@H]1[C@@H](O)[C@@H]2[C@H](CC[C@]3(C)[C@@H]([C@H](C)COC(=O)NS(=O)(=O)c4ccc(C(C)(C)CF)cc4)CC[C@@H]23)[C@@]2(C)CCCC[C@@H]12` has MRGPRX4 activation, Average at or above 0.02?
f

Dear colleague, could you confirm whether `CC[C@H]1[C@@H](O)[C@@H]2[C@H](CC[C@]3(C)[C@@H]([C@H](C)CNC(=O)NS(=O)(=O)c4ccc5c(c4)CCC(C)(C)O5)CC[C@@H]23)[C@@]2(C)CCCC[C@@H]12` has MRGPRX4 activation, Average at or above 0.02?
f

Dear colleague, could you confirm whether `CC[C@H]1[C@@H](O)[C@@H]2[C@H](CC[C@]3(C)[C@@H]([C@H](C)CCNC(=O)NS(=O)(=O)c4ccc(C(C)(C)CF)cc4)CC[C@@H]23)[C@@]2(C)CC[C@H](F)C[C@@H]12` has MRGPRX4 activation, Average at or above 0.02?
f

Dear colleague, could you confirm whether `CC[C@H]1[C@@H](O)[C@@H]2[C@H](CC[C@]3(C)[C@@H]([C@H](C)CCNC(=O)C(=O)NS(=O)(=O)c4cc(F)ccc4F)CC[C@@H]23)[C@@]2(C)CCCC[C@@H]12` has MRGPRX4 activation, Average at or above 0.02?
f
